Test system: PBMC cells obtained from mite allergic patients and non-allergics
test-protocol: Ex vivo stimulation of PBMC: cytokine production (IFN-gamma, IL-9, IL-10, IL-17, IL-31)
Type: cell-based, human
test-context: non-allergic individuals; IL-10
parameter-measured: % non-allergic individuals with cytokine production in ex-vivo T cell assay IL-10 (%)
One number for each entry, in %.

Would you kindly share the measured % non-allergic individuals with cytokine production in ex-vivo T cell assay IL-10 for A016: house dust mite protein; SEQ ID NO: 28 (Der f), 29 (Der p) (protein) MVKIGINGFGRIGRLVLRAAIKKGVEVAAINDPFLDVKYMVYMFKFDSTHGRYQGEVKEEGGLLVVDGQKIQVFQERNPAEIPWGKVGADYVVESTGVFTTIEKAKAHLAGGAKKVIISAPSADAPMYVMGVNHDKYDPKQQIISNASCTTNCLAPLAKVINDKFGIENGLMTTVHAITATQKTVDGPSGKLWRDGRGAGQNIIPASTGAAKAVGKVIPELNGKLTGMALRVPVPDVSVVDLTVTLKNPASYDEIKAAVKAAAESDHWKGILEYTDEEVVSSDFISDTHSSIFDAKAGIALTPTFVKLIAWYDNEFGYSNRVVDLIKYVASK ?
0
